Target or system VEGFR2 (Rattus norvegicus); recorded quantity pIC50.
The quantity pIC50 is defined as the negative base-10 logarithm of the molar concentration.

Example results:
molecular_string=c1cc2cc(Nc3nc(Nc4ccc5[nH]ccc5c4)c4cn[nH]c4n3)ccc2[nH]1 endpoint=pIC50 value_measured=5.43
molecular_string=O=S(=O)(NCCO)c1ccc(Nc2nc(Nc3ccc(C(F)(F)F)cc3)c3cn[nH]c3n2)cc1 endpoint=pIC50 value_measured=5.46

Shift focus to the following entry.
Exercise: Given the entry NS(=O)(=O)c1ccc(Nc2nc(NCc3ccccc3)c3cn[nH]c3n2)cc1 , what pIC50 was observed with VEGFR2 (Rattus norvegicus)?
Solution: 4.70

* * *

// log10 of IC50 lookup, one value per entry
# Tested on: HeLa cervical adenocarcinoma
# protocol description: Cell Proliferation Inhibition Assay (14C-thymidine incorporation), HeLa
# Assay type: cell-based
# details: Homo sapiens
Short version: log10 scale, IC50, µM.

Example results:
molecular_string=c1nc2ccc(Nc3nc(Nc4ccc5ncsc5c4)c4cn[nH]c4n3)cc2s1 endpoint="log10 of IC50" value_measured=1.12
molecular_string=c1cc2[nH]ncc2cc1Nc1nc(Nc2ccc3[nH]ncc3c2)c2cn[nH]c2n1 endpoint="log10 of IC50" value_measured=2.00
molecular_string=O=S(=O)(NCCO)c1ccc(Nc2nc(OCC3CCCCC3)c3cn[nH]c3n2)cc1 endpoint="log10 of IC50" value_measured=0.66

Exercise: Name the reported log10 of IC50 value associated with the compound O=S(=O)(NCCN1CCOCC1)c1ccc(Nc2nc(OCC3CCCCC3)c3cn[nH]c3n2)cc1
Solution: 1.29

Exercise: Name the reported log10 of IC50 value associated with the compound NS(=O)(=O)c1ccc(Nc2nc(Nc3ccccn3)c3cn[nH]c3n2)cc1
Solution: 2.00

Exercise: Name the reported log10 of IC50 value associated with the compound O=S(=O)(NCCO)c1ccc(Nc2nc(Nc3ccc(C(F)(F)F)cc3)c3cn[nH]c3n2)cc1
Solution: 0.53

Exercise: Name the reported log10 of IC50 value associated with the compound CC(C)(C)n1ncc2c(Nc3ccc(S(=O)(=O)NCCO)cc3)nc(Nc3ccc(S(=O)(=O)NCCO)cc3)nc21
Solution: 2.00

Exercise: Name the reported log10 of IC50 value associated with the compound NS(=O)(=O)c1ccc(Nc2nc(OCC3CCCCC3)c3cn[nH]c3n2)cc1
Solution: 1.26

Exercise: Name the reported log10 of IC50 value associated with the compound O=S(=O)(NCCO)c1ccc(Nc2nc(Nc3ccc(S(=O)(=O)NCCO)cc3)c3cnoc3n2)cc1
Solution: 2.00

Exercise: Name the reported log10 of IC50 value associated with the compound NS(=O)(=O)c1ccc(Nc2nc(Nc3ccc(S(N)(=O)=O)cc3)c3cnoc3n2)cc1
Solution: 1.85
